- test-system: T1, 4H3613-bN
- T1 chain: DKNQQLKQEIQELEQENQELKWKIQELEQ
- experiment-summary: two-hybrid library CCNG1;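 further: natural log of median RNA to DNA barcode read ratio; higher means stronger binding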
Catalogue of binders with associated interaction score
Just the number, please, no unit after it.

- binder: "DKNQQLEQEIQELKQKIQELEWKNQELEQ [4H3175-bN]"
  interaction score: -0.132

# input Looking for the measured interaction score of DENQQLKQKNQELKQEIQELEWEIQELEQ [4H1985-bN] , can you help?
# output -1.86

# input interaction score lookup needed for DENQQLEQKIQELKQEIQELEWENQELKQ [4H1348-bN] , thanks.
# output -0.0173
